The measurements presented in this section are drawn from ChEMBL document CHEMBL5634108.

# system: Aurora kinase C (Homo sapiens, UniProt Q9UQB9)
# Sequence (Q9UQB9 whole entry): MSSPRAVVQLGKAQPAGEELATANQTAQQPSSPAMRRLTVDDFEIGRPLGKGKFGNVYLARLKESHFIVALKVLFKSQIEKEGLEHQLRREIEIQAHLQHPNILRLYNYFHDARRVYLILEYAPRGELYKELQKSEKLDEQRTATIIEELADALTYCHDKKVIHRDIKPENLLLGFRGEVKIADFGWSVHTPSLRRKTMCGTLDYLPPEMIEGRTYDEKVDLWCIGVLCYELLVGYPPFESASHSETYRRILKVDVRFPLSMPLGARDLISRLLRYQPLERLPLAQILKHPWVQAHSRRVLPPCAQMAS
# test: Inhibition of human AURKC by discoverX kinome scan assay
test_readout: pIC50
Worth noting: pIC50 values are minus log10 of concentrations stated in mol/L.

Lab note: measured pIC50 of COc1nc(F)ccc1CNc1ccc(Cc2c[nH]c3ncc(C)cc23)c(F)n1 was 7.80

====

# system: NT-3 growth factor receptor (Homo sapiens, UniProt Q16288)
# Sequence (Q16288 whole entry): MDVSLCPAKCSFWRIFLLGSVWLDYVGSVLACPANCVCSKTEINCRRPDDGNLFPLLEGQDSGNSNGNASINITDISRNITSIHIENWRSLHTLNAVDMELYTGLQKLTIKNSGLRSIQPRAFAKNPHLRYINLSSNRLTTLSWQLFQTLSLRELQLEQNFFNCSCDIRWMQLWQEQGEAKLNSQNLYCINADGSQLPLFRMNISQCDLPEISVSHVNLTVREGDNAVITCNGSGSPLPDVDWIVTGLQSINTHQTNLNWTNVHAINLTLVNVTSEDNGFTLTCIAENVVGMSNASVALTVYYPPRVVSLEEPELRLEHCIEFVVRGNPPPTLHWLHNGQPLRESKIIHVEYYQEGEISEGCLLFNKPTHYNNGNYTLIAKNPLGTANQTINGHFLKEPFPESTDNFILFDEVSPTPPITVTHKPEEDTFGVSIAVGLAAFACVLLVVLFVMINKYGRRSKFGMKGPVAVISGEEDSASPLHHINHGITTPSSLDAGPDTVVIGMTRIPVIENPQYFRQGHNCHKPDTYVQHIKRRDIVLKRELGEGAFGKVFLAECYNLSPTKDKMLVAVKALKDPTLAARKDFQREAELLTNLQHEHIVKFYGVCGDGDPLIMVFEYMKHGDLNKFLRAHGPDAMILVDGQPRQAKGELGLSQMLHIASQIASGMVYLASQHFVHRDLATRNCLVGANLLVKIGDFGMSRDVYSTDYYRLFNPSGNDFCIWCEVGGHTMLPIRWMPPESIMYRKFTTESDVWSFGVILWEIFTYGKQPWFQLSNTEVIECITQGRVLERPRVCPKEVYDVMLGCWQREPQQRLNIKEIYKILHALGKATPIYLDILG
# test: Inhibition of TRKC (unknown origin)
test_readout: IC50 (nM)
Unit nM implied. Number only.

The measured IC50 that FC(F)(F)c1ccc(CNc2ccc(Cc3c[nH]c4ncc(Cl)cc34)cn2)cn1 [PEXIDARTINIB] showed for NT-3 growth factor receptor (Homo sapiens, UniProt Q16288) is 890
